# system_tested: human recombinant SSAO/VAP-1 (Homo sapiens, UniProt Q16853)
# Construct: a cloned cDNA template corresponding to residues 34-763 of human SSAO/VAP-1; TEV cleavage site (N)
# Sequence (Q16853 34-763): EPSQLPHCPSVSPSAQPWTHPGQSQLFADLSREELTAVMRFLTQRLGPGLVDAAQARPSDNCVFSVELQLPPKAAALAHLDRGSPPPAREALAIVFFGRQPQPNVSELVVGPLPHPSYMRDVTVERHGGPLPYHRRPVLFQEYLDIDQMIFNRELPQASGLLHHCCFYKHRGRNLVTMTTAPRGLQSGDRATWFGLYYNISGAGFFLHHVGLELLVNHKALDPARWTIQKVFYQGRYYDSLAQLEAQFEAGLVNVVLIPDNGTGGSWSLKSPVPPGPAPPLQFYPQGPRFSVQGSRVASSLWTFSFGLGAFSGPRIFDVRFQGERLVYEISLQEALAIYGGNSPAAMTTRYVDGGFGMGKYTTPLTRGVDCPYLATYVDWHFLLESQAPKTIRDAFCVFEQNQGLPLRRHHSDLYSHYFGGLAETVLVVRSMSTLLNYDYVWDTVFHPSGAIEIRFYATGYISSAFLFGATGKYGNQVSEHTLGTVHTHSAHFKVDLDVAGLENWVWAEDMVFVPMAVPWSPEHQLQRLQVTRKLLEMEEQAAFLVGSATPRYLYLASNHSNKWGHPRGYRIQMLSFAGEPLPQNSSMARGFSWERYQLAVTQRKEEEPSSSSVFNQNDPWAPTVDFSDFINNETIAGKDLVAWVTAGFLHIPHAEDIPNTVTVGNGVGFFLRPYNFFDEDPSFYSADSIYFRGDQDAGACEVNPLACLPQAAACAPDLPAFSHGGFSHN
# protocol_summary: Human recombinant SSAO/VAP-1 amine oxidase inhibition
# condition_info: 30 min preincubation at 37° C., 600 μM benzylamine
Structures can show the parent of a compound that is named as a salt.
A collection of compounds and their measured IC50

compound="Cc1nn(C/C(F)=C/CN)c(C)c1Cc1ccc(S(=O)(=O)N(C)C)cc1 [Compound 2, hydrochloride]" readout_value="> 30 µM"
compound="Cc1nn(C/C(F)=C/CN)c(C)c1Cc1ccc(S(=O)(=O)N(C)C)c(Cl)c1 [Compound 15, hydrochloride]" readout_value="< 10 µM"
compound="Cc1nn(C/C(F)=C/CN)c(C)c1Cc1ccc(S(=O)(=O)N2CCOCC2)cc1 [Compound 6, hydrochloride]" readout_value="> 30 µM"

Please turn your attention to the following entry.
Q: Given the entry CC(C)c1nn(C/C(F)=C/CN)c(C(C)O)c1Cc1ccc(S(=O)(=O)N(C)C)c(Cl)c1 (stereo not shown) [Compound 59, hydrochloride] , report its measured IC50.
Ans: > 30 µM

* * *

A collection of compounds and their measured pIC50
# system_tested: Recombinant human MAO-B (Homo sapiens)
# Sequence (P27338 1-520): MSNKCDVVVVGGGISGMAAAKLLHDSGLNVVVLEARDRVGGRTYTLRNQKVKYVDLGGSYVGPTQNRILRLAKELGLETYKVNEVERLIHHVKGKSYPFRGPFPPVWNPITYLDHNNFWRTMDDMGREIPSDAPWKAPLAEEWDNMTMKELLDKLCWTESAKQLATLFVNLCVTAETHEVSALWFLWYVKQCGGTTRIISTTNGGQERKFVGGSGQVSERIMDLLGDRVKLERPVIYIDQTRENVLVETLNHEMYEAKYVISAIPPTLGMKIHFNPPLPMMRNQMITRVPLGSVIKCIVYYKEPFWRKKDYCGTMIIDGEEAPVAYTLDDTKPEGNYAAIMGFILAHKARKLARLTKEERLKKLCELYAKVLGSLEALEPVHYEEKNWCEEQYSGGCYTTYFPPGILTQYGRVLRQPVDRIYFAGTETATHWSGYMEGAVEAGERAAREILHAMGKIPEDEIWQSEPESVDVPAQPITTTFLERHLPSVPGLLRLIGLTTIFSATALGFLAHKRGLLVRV
# protocol_summary: Human recombinant MAO-B inhibition
# condition_info: benzylamine 100 μM
pIC50: −log10 of the molar value. Structures can show the parent of a compound that is named as a salt.

compound="CNS(=O)(=O)c1ccc(Cn2nc(C)c(C/C(F)=C/CN)c2C)cc1Cl [Compound 22, hydrochloride]" system_tested="Recombinant human MAO-B (Homo sapiens)" readout_value="< 4.52"
compound="CCc1nn(C/C(F)=C/CN)c(CC)c1Cc1ccc(S(=O)(=O)N(C)C)cc1 [Compound 13, hydrochloride]" system_tested="Recombinant human MAO-B (Homo sapiens)" readout_value="< 4.52"
compound="CCOC(=O)c1c(Cc2ccc(S(=O)(=O)N(C)C)cc2)c(C)nn1C/C(F)=C/CN [Compound 27, hydrochloride]" system_tested="Recombinant human MAO-B (Homo sapiens)" readout_value="< 4.52"
compound="Cc1nn(Cc2ccc(S(=O)(=O)N(C)C)cc2)c(C)c1C/C(F)=C/CN [Compound 10, hydrochloride]" system_tested="Recombinant human MAO-B (Homo sapiens)" readout_value="< 5.00"
compound="Cc1nn(C/C(F)=C/CN)c(C)c1Cc1cc(F)c(S(=O)(=O)N(C)C)cc1F [Compound 19, hydrochloride]" system_tested="Recombinant human MAO-B (Homo sapiens)" readout_value="< 4.52"

Q: Given the entry Cc1nn(C/C(F)=C/CN)c(C)c1Cc1ccc(S(=O)(=O)N(C)C)c(C(F)(F)F)c1 [Compound 18, hydrochloride] , report its measured pIC50.
Ans: < 4.52

Q: Given the entry Cc1nn(C/C(F)=C/CN)c(C)c1Cc1ccc(S(=O)(=O)N(C)C)cc1 [Compound 2, hydrochloride] , report its measured pIC50.
Ans: < 4.52

Q: Given the entry Cc1nn(C/C(F)=C/CN)c(C)c1Cc1ccc(S(C)(=O)=O)cc1 [Compound 4, hydrochloride] , report its measured pIC50.
Ans: < 4.52

Q: Given the entry Cc1nn(C/C(F)=C/CN)c(C)c1Cc1ccc(C(=O)N(C)C)cc1 [Compound 14, hydrochloride] , report its measured pIC50.
Ans: < 4.52

* * *

A collection of molecules and their measured melting point
Structures can show the parent of a compound that is named as a salt.

Q: Given the entry Cc1nn(C/C(F)=C/CN)c(C)c1Cc1ccc(S(C)(=O)=O)c(Cl)c1 (as salt: hydrochloride) [Compound 16] , report its measured melting point.
Ans: 105 to 115 °C

Q: Given the entry CNS(=O)(=O)c1ccc(Cn2nc(C)c(C/C(F)=C/CN)c2C)c(Cl)c1 (as salt: hydrochloride) [Compound 20] , report its measured melting point.
Ans: 80 to 86 °C

Q: Given the entry Cc1nn(C/C(F)=C/CN)c(C)c1Cc1ccc(C(=O)N(C)C)cc1 (as salt: hydrochloride) [Compound 14] , report its measured melting point.
Ans: 75 to 82 °C

Q: Given the entry Cc1nn(C/C(F)=C/CN)c(C)c1Cc1ccc(S(=O)(=O)N(C)C)cc1 (as salt: hydrochloride) [Compound 2] , report its measured melting point.
Ans: 209 to 211 °C

* * *

# system_tested: Bovine LOX (Bos taurus)
# Sequence (P33072 170-418): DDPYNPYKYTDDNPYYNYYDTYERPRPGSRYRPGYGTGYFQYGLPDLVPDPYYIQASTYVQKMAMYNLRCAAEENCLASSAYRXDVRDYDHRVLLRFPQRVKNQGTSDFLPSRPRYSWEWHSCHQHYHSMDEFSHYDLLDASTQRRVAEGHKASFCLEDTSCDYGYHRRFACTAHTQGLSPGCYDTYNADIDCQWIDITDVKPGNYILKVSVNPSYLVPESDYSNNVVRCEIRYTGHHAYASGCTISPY
pIC50: −log10 of the molar value. Structures can show the parent of a compound that is named as a salt.
assay_endpoint: pIC50

Please review the following examples before continuing.
compound="Cc1nn(Cc2ccc(S(=O)(=O)N(C)C)cc2)c(C)c1C/C(F)=C/CN [Compound 10, hydrochloride]" system_tested="Bovine LOX (Bos taurus)" readout_value="> 5.00"
compound="Cc1nn(Cc2ccc(S(=O)(=O)N(C)C)cc2Cl)c(C)c1C/C(F)=C/CN [Compound 47, hydrochloride]" system_tested="Bovine LOX (Bos taurus)" readout_value="> 5.00"
compound="CC(C)c1nn(C/C(F)=C/CN)c(C(C)O)c1Cc1ccc(S(=O)(=O)N(C)C)c(Cl)c1 (centres unmarked) [Compound 59, hydrochloride]" system_tested="Bovine LOX (Bos taurus)" readout_value="< 5.00"
compound=Cc1nn(C/C(F)=C/CN)c(C)c1-c1cccc(S(=O)(=O)N(C)C)c1 system_tested="Bovine LOX (Bos taurus)" readout_value="> 5.00"
compound="Cc1nn(C/C(F)=C/CN)c(C(C)O)c1Cc1ccc(S(=O)(=O)N(C)C)c(Cl)c1 (single isomer, unassigned) [Compound 53, hydrochloride]" system_tested="Bovine LOX (Bos taurus)" readout_value="< 5.00"

Q: Given the entry Cc1nn(C/C(F)=C/CN)c(CO)c1Cc1ccc(S(=O)(=O)N(C)C)cc1Cl [Compound 55, hydrochloride] , report its measured pIC50.
Ans: > 5.00

Q: Given the entry CS(=O)(=O)c1cccc(-c2cnn(C/C(F)=C/CN)c2)c1 [Compound 67, hydrochloride] , report its measured pIC50.
Ans: > 5.00

Q: Given the entry Cc1nn(C/C(F)=C/CN)c(C)c1Cc1ccc(S(=O)(=O)N(C)C)cc1Cl [Compound 3, hydrochloride] , report its measured pIC50.
Ans: > 5.00

* * *

A collection of compounds and their measured IC50
# system_tested: human recombinant SSAO/VAP-1 (Homo sapiens)
# Construct: a cloned cDNA template corresponding to residues 34-763 of human SSAO/VAP-1; TEV cleavage site (N)
# protocol_summary: Human recombinant SSAO/VAP-1 amine oxidase inhibition
# condition_info: 30 min preincubation at 37° C., 600 μM benzylamine
Structures can show the parent of a compound that is named as a salt.

compound="CNS(=O)(=O)c1cc(F)c(Cn2nc(C)c(C/C(F)=C/CN)c2C)cc1F [Compound 26, hydrochloride]" readout_value="< 10 µM"
compound="Cc1nn(Cc2ccc(S(C)(=O)=O)c(Cl)c2)c(C)c1C/C(F)=C/CN [Compound 24, hydrochloride]" readout_value="> 30 µM"
compound="CNS(=O)(=O)c1ccc(Cn2nc(C)c(C/C(F)=C/CN)c2C)c(Cl)c1 [Compound 20, hydrochloride]" readout_value="< 10 µM"
compound="Cc1nn(C/C(F)=C/CN)c(C)c1Cc1cccc(S(=O)(=O)N(C)C)c1 [Compound 5, hydrochloride]" readout_value="> 30 µM"
compound="CCc1nn(C/C(F)=C/CN)c(CC)c1Cc1ccc(S(=O)(=O)N(C)C)cc1 [Compound 13, hydrochloride]" readout_value="> 30 µM"

Please turn your attention to the following entry.
Q: Request: IC50, test system human recombinant SSAO/VAP-1 (Homo sapiens), entry CCOC(=O)c1nn(C/C(F)=C/CN)c(C)c1Cc1ccc(S(=O)(=O)N(C)C)cc1 [Compound 28, hydrochloride]
Ans: > 30 µM
